Target entity: Anoctamin-1 (Mus musculus)
Test: mouse ANO1 channel activation – cell-based, HTS, primary screen (AID 623877)
Condition set: HEK293 TMEM16A/YFP-H148Q/I152L, iodide quench fluorescence, at 10 µM
The whole screen tested about 340,000 compounds, of which about 1,000 (0.29%) were called active.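 The calls were made as follows: active = fluorescence-ratio B-score plate-corrected deviation score at least 3 library SD below zero, with starting fluorescence score within 5 deviations; inactive = the rest.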 The sample as a whole holds a higher share of actives than the screen did.
Possible outcomes: true (1) (active), false (0) (inactive)

Compound	Label
NS(=O)(=O)c1ccc(NC(=O)COC(=O)c2c3c(nc4ccccc24)/C(=C\c2ccc4c(c2)OCO4)CCC3)cc1	false (0)
COc1ccc(S(=O)(=O)N2CCCCCC2)cc1C(=O)N(C)Cc1cccc(OC)c1OC	true (1)
COc1ccc(C(=O)N(C)Cc2ccc(OC)c(OC)c2OC)cc1S(=O)(=O)N1CCOCC1	false (0)
COCC1CCCN(Cc2nc(-c3ccc4c(c3)OCO4)no2)C1 (centres undefined)	false (0)
Cc1ccc(NS(=O)(=O)c2ccc3c(c2)oc(=O)n3C)c(C)c1	false (0)
C=CCC[C@H](Cc1ccc(F)cc1)C(=O)OC[C@H](C)NC(=O)[C@H](CC=C)CC(=O)N(CCO)Cc1ccccc1	false (0)
Cc1ccc(S(=O)(=O)NC(C(=O)N2CCOCCOCCOCCOCC2)c2ccccc2)cc1 (centres undefined)	false (0)
COc1ccc(NC(=O)CSc2nc(NS(=O)(=O)c3ccc(C)cc3)cc(=O)[nH]2)cc1	false (0)
Nc1ccc2c(c1)C(=Cc1cccnc1)c1ccccc1-2	false (0)
NC(=O)c1ccc(NC(=O)COC(=O)c2c3c(nc4ccccc24)/C(=C\c2ccc4c(c2)OCO4)CCC3)cc1	true (1)
O=C(CC(O)(C(F)(F)F)C(F)(F)F)Nc1ccc(Cl)c(Cl)c1	true (1)
Cc1cc(=O)n2nc(N3CCCC(C(=O)NCCC4=CCCCC4)C3)sc2n1 (centres undefined)	false (0)
COC(=O)/C=C\C(=O)Nc1cccc([N+](=O)[O-])c1	true (1)
COc1ccc(-c2ccnc(SCC(=O)N3CCOCC3)n2)cc1	false (0)
COC1=NC2=NCCN2C(OC)=N1	false (0)
Cc1c(C(=O)NC(=S)NCc2cccnc2)oc2ccccc12	true (1)
Cc1ccc(C(=O)NC(=S)NCc2cccnc2)cc1	false (0)
Cc1cccc(C)c1NC(=O)C1CCCN1C(=O)OC(C)(C)C (centres undefined)	false (0)
CCCS(=O)(=O)N1CCCC(C(=O)NCc2ccco2)C1 (centres undefined)	false (0)
Cc1cc(=O)n2nc(N3CCCC3C(=O)NCCCN3CC(C)CC(C)C3)sc2n1 (centres undefined)	true (1)
Nc1ncnc2c1cnn2C1CC(O)C(CO)O1 (centres undefined)	false (0)
COC1=C/C(=C/c2c(N)n3nc(CC(=O)N4CCOCC4)sc3nc2=O)C=CC1=O	true (1)
O=C(c1ccc(Cl)c(S(=O)(=O)N2CCCCCC2)c1)N1CCN(c2ccc(O)cc2)CC1	true (1)
O=C(C1CCC1)N1CCN(S(=O)(=O)c2ccc([N+](=O)[O-])cc2)CC1	false (0)
O=c1oc2ccccc2c(=O)c2ccccc12	false (0)
C=CCC1=C/C(=C\c2c(N)n3nc(CC(=O)N4CCOCC4)sc3nc2=O)C=C(OC)C1=O	false (0)
CCCC(C(=O)n1nc(C)cc1C)C(NS(=O)(=O)c1ccc(C)cc1)c1ccccc1 (centres undefined)	true (1)
Nc1nnc(SCC(=O)NC2CCCc3ccccc32)s1 (centres undefined)	true (1)
COc1ccc(N=C2C=CC(=O)O2)cc1	false (0)
O=C(COC(=O)c1cc[n+]([O-])cc1)Nc1ccc(Cl)c(C(F)(F)F)c1	false (0)
NC(=O)N1CCCC1C(=O)Nc1ccc(Cl)c(Cl)c1 (centres undefined)	false (0)
CCCSc1ncccc1C(=O)O	false (0)
COc1ccccc1N1CCN(C(=O)c2ccc(Cl)c(S(=O)(=O)N3CCCC3)c2)CC1	false (0)
CN(CCN1CCOCC1)Cc1nc(-c2ccc3c(c2)OCO3)no1	true (1)
O=P(c1cccs1)(c1cccs1)c1cccs1	false (0)
C=CCSc1nnc(N2C(=O)C(O)=C(C(=O)c3ccco3)C2c2ccc(F)cc2)s1 (centres undefined)	true (1)
O=C(c1ccc(Cl)c(S(=O)(=O)N2CCCCC2)c1)N1CCCCCC1	false (0)
Cc1c(C(=O)NNC(=O)c2ccncc2)oc2ccccc12	false (0)
Cc1ccccc1CSc1nnc(Cn2c(=O)sc3ccccc32)n1C	false (0)
O=C(Nc1cccc([N+](=O)[O-])c1)Nn1cnnc1	false (0)
O=C(O)C1CCN1C1CCCCC1 (centres undefined)	true (1)
O=[N+]([O-])c1ccc(NS(=O)(=O)c2ccccc2)c(Cl)c1	false (0)
COc1ccc(CN2C(=O)C(C)S/C2=N/N=C/c2ccco2)cc1 (centres undefined)	false (0)
CCn1c(SCC(=O)Nc2ccccc2F)nc2c(c1=O)SC(C)C2 (centres undefined)	false (0)

Recorded values, source PubChem BioAssay AID623877.
